Sourced from the supplement of paper PMC10307832

test system: HARA; experiment: relative viability (nuclei count vs DMSO), 5 days (fraction); higher = more cells survive; details: first compound 4 µM
# note: exactly 0.2 is not below, so it is Not satisfied; use Satisfied for relative viability strictly under it

Hello, I'm reviewing records and need to know if relative viability of Cc1sc2c(c1C)C(c1ccc(Cl)cc1)=N[C@@H](CC(=O)OC(C)(C)C)c1nnc(C)n1-2 [JQ1] + CC(C)C[C@H](NC(=O)[C@H](Cc1ccccc1)NC(=O)c1cnccn1)B(O)O [Bortezomib] (partner 0.002 µM) is below 0.2. Could you check?
Satisfied

Hello, I'm reviewing records and need to know if relative viability of Cc1sc2c(c1C)C(c1ccc(Cl)cc1)=N[C@@H](CC(=O)OC(C)(C)C)c1nnc(C)n1-2 [JQ1] + CCNC(=O)c1noc(-c2cc(C(C)C)c(O)cc2O)c1-c1ccc(CN2CCOCC2)cc1 [Luminespib] (partner 0.01 µM) is below 0.2. Could you check?
Satisfied

Hello, I'm reviewing records and need to know if relative viability of Cc1sc2c(c1C)C(c1ccc(Cl)cc1)=N[C@@H](CC(=O)OC(C)(C)C)c1nnc(C)n1-2 [JQ1] + C[C@]1(O)C[C@@H](c2nc(-c3ccc4ccc(-c5ccccc5)nc4c3)c3c(N)nccn32)C1 [Linsitinib] (partner 1 µM) is below 0.2. Could you check?
Satisfied

Hello, I'm reviewing records and need to know if relative viability of Cc1sc2c(c1C)C(c1ccc(Cl)cc1)=N[C@@H](CC(=O)OC(C)(C)C)c1nnc(C)n1-2 [JQ1] + CC(=O)Nc1cccc(-n2c(=O)n(C3CC3)c(=O)c3c(Nc4ccc(I)cc4F)n(C)c(=O)c(C)c32)c1 [Trametinib] (partner 0.02 µM) is below 0.2. Could you check?
Not satisfied

Hello, I'm reviewing records and need to know if relative viability of Cc1sc2c(c1C)C(c1ccc(Cl)cc1)=N[C@@H](CC(=O)OC(C)(C)C)c1nnc(C)n1-2 [JQ1] + Cc1nc(Nc2ncc(C(=O)Nc3c(C)cccc3Cl)s2)cc(N2CCN(CCO)CC2)n1 [Dasatinib] (partner 0.075 µM) is below 0.2. Could you check?
Not satisfied

---

tested on: NCI-H441; test: relative viability (nuclei count vs DMSO), 5 days (fraction); higher = more cells survive; conditions: first compound 0.04 µM
Consider the following molecules; for each one, report its relative viability.
When you answer, write just the number.

Record Cc1sc2c(c1C)C(c1ccc(Cl)cc1)=N[C@@H](CC(=O)OC(C)(C)C)c1nnc(C)n1-2 [JQ1] + Cc1nc(NC(=O)N2CCC[C@H]2C(N)=O)sc1-c1ccnc(C(C)(C)C(F)(F)F)c1 [Alpelisib] (partner 2 µM) . Reported relative viability: 0.772

Record Cc1sc2c(c1C)C(c1ccc(Cl)cc1)=N[C@@H](CC(=O)OC(C)(C)C)c1nnc(C)n1-2 [JQ1] + C[C@@H](Oc1cc(-c2cnn(C3CCNCC3)c2)cnc1N)c1c(Cl)ccc(F)c1Cl [Crizotinib] (partner 1 µM) . Reported relative viability: 0.813

Record Cc1sc2c(c1C)C(c1ccc(Cl)cc1)=N[C@@H](CC(=O)OC(C)(C)C)c1nnc(C)n1-2 [JQ1] + Cc1nc(Nc2ncc(C(=O)Nc3c(C)cccc3Cl)s2)cc(N2CCN(CCO)CC2)n1 [Dasatinib] (partner 0.075 µM) . Reported relative viability: 0.558

Record Cc1sc2c(c1C)C(c1ccc(Cl)cc1)=N[C@@H](CC(=O)OC(C)(C)C)c1nnc(C)n1-2 [JQ1] + O=C(c1cc(Cc2n[nH]c(=O)c3ccccc23)ccc1F)N1CCN(C(=O)C2CC2)CC1 [Olaparib] (partner 8 µM) . Reported relative viability: 0.612

Record Cc1sc2c(c1C)C(c1ccc(Cl)cc1)=N[C@@H](CC(=O)OC(C)(C)C)c1nnc(C)n1-2 [JQ1] + CCNC(=O)c1noc(-c2cc(C(C)C)c(O)cc2O)c1-c1ccc(CN2CCOCC2)cc1 [Luminespib] (partner 0.01 µM) . Reported relative viability: 0.37

Record Cc1sc2c(c1C)C(c1ccc(Cl)cc1)=N[C@@H](CC(=O)OC(C)(C)C)c1nnc(C)n1-2 [JQ1] + Cc1cc(Nc2cc(N3CCN(C)CC3)nc(Sc3ccc(NC(=O)C4CC4)cc3)n2)n[nH]1 [Tozasertib] (partner 0.1 µM) . Reported relative viability: 0.629
